EXPERIMENTAL_TARGET: T1, PUF4 RNA-binding domain (Saccharomyces cerevisiae, UniProt P25339 537-888)
T1 sequence: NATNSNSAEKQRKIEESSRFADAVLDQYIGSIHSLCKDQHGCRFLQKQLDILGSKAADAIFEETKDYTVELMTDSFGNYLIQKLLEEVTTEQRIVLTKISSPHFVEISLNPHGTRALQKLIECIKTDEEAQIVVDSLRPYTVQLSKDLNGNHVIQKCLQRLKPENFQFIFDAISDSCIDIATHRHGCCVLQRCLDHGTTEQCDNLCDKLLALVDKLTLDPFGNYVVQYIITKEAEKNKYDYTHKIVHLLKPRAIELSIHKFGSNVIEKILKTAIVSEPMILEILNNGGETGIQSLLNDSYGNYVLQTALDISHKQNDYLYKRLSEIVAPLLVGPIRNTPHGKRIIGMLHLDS
PROTOCOL_TEXT: Mg; RNA-MaP; 20 mM Na-HEPES pH 7.4, 30 mM KOAc, 0.75 mM MgCl2, 0.1% Tween-20, 5% glycerol, 0.1 mg/mL BSA, 2 mM DTT; 25 C; 0.0125-409.6 nM protein
TEST_CONDITIONS: tags: N-His6-TEV cleaved; C-SNAP kept, Cy3B-labelled; label: tethered on chip by stalled RNA polymerase
pKd: −log10 of the molar value.
pKd listing for selected binders.
VALUE_KIND: pKd

BINDER | NUMERIC_VALUE
UCUCUUUGUACUCCACUCUCUU (ssRNA) [Ic_S1_P5E.1_K5.1_C5.1_H5.1_A5.1_[T5C]_[A7C]_F5.1_[T8C]_[T9A]_[A10C]_T5.1] | 6.30
Ic_S2_P4E.1_K4.1_C4.1_H4.1_A4.1_[T5A]_[A6T]_F4.1_[T8A]_[A9T]_T4.1 (ssRNA) RNA: UUUGAUUAAUAUGAUAUCGUUCUUUCUUGUAAUUAUUUCUUUCUCGAUAUCAUAUUAAUCUUU | 7.44
UCUCUUCUUGUAUCAUAUAUCUCUU (ssRNA) [Ie_S1_P3E.2_K3.1_C3.2_H3.1_A3.1_[+5C]_F3.1_T3.2] | 8.80
